This collection of values is drawn from PubChem BioAssay (NCI).

experiment: NCI Yeast Anticancer Drug Screen. Data for the rad14 strain (AID 159); details: S. cerevisiae rad14 strain growth inhibition; at 3.7 µM
About 79,000 compounds went through this panel and 15% of them were active in at least one assay; those are over-represented in the sample as a whole. Calls of active or inactive are those of the source. Cut-off read from the data, not from the text of the source: active = growth inhibition above about 70%; inactive = the rest. Residues, ends and D or L forms follow the SMILES beside them. *: point of attachment. CH2Cl = ClC*
Labels: active, inactive

> print(dat)
                                    molecule  classification
 1              Cc1ccc(N=Nc2ccc(O)c(C)c2)cc1        inactive
 2                          CCCCC1=NNC(=O)C1        inactive
 3     CCNc1ccc2c(c1)C(=O)N(OS(C)(=O)=O)C2=O        inactive
 4                       O=C(O)c1ccccc1.[Ag]          active
 5     CC(=O)C1=C(C)O/C(=C/c2cccc(Cl)c2)C1=O        inactive
 6      CN(N=O)c1ccc(/C=C/c2ccnc3ccccc23)cc1        inactive
 7                       CCOC(=O)c1csc(Br)n1        inactive
 8  CC(=O)NC(CC(C)C)C(=O)NC(Cc1ccccc1)C(=O)CCl (stereo not drawn) (Ac-Leu-Phe-CH2Cl; configuration not given here)        inactive
 9  O=C1c2c(O)cccc2-c2nn(CCNCCO)c3ccc(NCCNCCO)c1c23        inactive
10        COC(=O)c1oc([N+](=O)[O-])c(Cl)c1Cl          active
11  CC(=O)C1=C(O)C2(C)c3c(O)c(C)c(O)c(C(C)=O)c3OC2(Sc2ccccc2)CC1=O (centres undefined)        inactive
12                   S=c1cn[nH]c2ccc(Br)cc12        inactive
13  CN(N=O)C(=O)N[C@@H](C=O)[C@@H](O)[C@H](O)[C@H](O)CO        inactive
14              O=C(NC(=S)Nc1ccccn1)c1ccccc1        inactive
15  COc1ccc(N=N/C(=N\NC(=O)c2cc(Br)ccc2O)c2ccc(N(CCC#N)CCC#N)cc2OC)cc1        inactive
16  NC(N)=NCCCS(=O)(=O)Nc1ccc(Nc2c3ccccc3nc3cc([N+](=O)[O-])ccc23)cc1        inactive
17             O=C1C=CC(=Nc2ccccc2)c2ccccc21        inactive
18  COc1cc([C@@H]2c3cc4c(cc3[C@@H](OC3OC5COC(C)OC5C(O)C3O)[C@H]3COC(=O)[C@H]23)OCO4)cc(OC)c1O (some centres undefined)        inactive
19                      O=NN(CCCl)C(=O)NCCCl        inactive
20  Cc1ccc(Nc2c3c(c(C#N)c4nc5ccccc5n24)CCCC3)cc1        inactive
21       N#CSC1CCCCNC1=O (centres undefined)        inactive
22               Clc1cc(-c2ccccc2)nc2ccccc12        inactive
23  CC1CCC2(C(=O)O)CCC3(C)C(=CCC4C5(C)CC(O)C(O)C(C)(CO)C5C(O)CC43C)C2C1C (centres undefined)        inactive
24              NC(=O)N1c2ccccc2C=Cc2ccccc21        inactive
